- Test system: croton oil-induced granuloma
- assay.remarks: Test for croton oil-induced granuloma (air pouch exudate and thymus weight)
- Assay type: in vivo, rat
- details: male Wistar rats, dose 1 mg/rat into pouch, 7 days, vs control group
Examples of compounds with documented Rate of thymus atrophy (systemic side effects) follow.
Quick note: give the figure in %, leave out the unit.

Study these solved cases before continuing.
1. CCCC(=O)OCC1OC(OCC(=O)C23OC(C4CCCCC4)OC2CC2C4CCC5=CC(=O)C=CC5(C)C4C(O)CC23C)C(OC(=O)CCC)C(OC(=O)CCC)C1OC(=O)CCC (centres unmarked) [Compound 5] ... 0.0
2. CC(=O)NC1C(OCC(=O)C23OC(C4CCCCC4)OC2CC2C4CCC5=CC(=O)C=CC5(C)C4C(O)CC23C)OC(COC(C)=O)C(OC(C)=O)C1OC(C)=O (centres unmarked) [Compound 12] ... 8.0
3. CC(C)C(=O)OCC1OC(OCC(=O)C23OC(C4CCCCC4)OC2CC2C4CCC5=CC(=O)C=CC5(C)C4C(O)CC23C)C(OC(=O)C(C)C)C(OC(=O)C(C)C)C1OC(=O)C(C)C (centres unmarked) [Compound 6] ... 0.0

Recorded Rate of thymus atrophy (systemic side effects) of CC(=O)OC1C(C)OC(OCC(=O)C23OC(C4CCCCC4)OC2CC2C4CCC5=CC(=O)C=CC5(C)C4C(O)CC23C)C(OC(C)=O)C1OC(C)=O (centres unmarked) [Compound 9] , please.
15.5

Recorded Rate of thymus atrophy (systemic side effects) of CCCC1O[C@@H]2C[C@H]3[C@@H]4CCC5=CC(=O)C=C[C@]5(C)[C@H]4[C@@H](O)C[C@]3(C)[C@]2(C(=O)CO)O1 (some centres unmarked) [Budesonide, budesonide, reference compound] , please.
87.5

Recorded Rate of thymus atrophy (systemic side effects) of CC(C)C(=O)OCC(=O)[C@@]12O[C@H](C3CCCCC3)O[C@@H]1C[C@H]1[C@@H]3CCC4=CC(=O)C=C[C@]4(C)[C@H]3[C@@H](O)C[C@@]12C [Ciclesonide, ciclesonide, reference compound] , please.
84.4

* * *

Examples of compounds with documented Edema suppression rate of 6 hours after administration of inflammatory agent (%) follow.
- Tested on: croton oil-induced ear edema
- assay.remarks: Test for croton oil-induced ear edema
- Type: in vivo
- details: rat right auricle, ointment concentration 0.01%, 6 hours after croton oil
Quick note: give the figure in %, leave out the unit.

1. CCCC1O[C@@H]2C[C@H]3[C@@H]4CCC5=CC(=O)C=C[C@]5(C)[C@H]4[C@@H](O)C[C@]3(C)[C@]2(C(=O)CO)O1 (stereo partly shown) [Budesonide, budesonide, reference compound] ... 32.3
2. CC(=O)OC1C(C)OC(OCC(=O)C23OC(C4CCCCC4)OC2CC2C4CCC5=CC(=O)C=CC5(C)C4C(O)CC23C)C(OC(C)=O)C1OC(C)=O (stereo not shown) [Compound 9] ... 36.7
3. CCCC(=O)OCC1OC(OCC(=O)C23OC(C4CCCCC4)OC2CC2C4CCC5=CC(=O)C=CC5(C)C4C(O)CC23C)C(OC(=O)CCC)C(OC(=O)CCC)C1OC(=O)CCC (stereo not shown) [Compound 5] ... 61.5
4. CC(=O)OC1C(C)OC(OCC(=O)C23OC(C4CCCCC4)OC2CC2C4CCC5=CC(=O)C=CC5(C)C4C(O)CC23C)C(OC(C)=O)C1OC(C)=O (stereo not shown) [Compound 10] ... 55.9
5. CC(=O)OCC1OC(OCC(=O)C23OC(C4CCCCC4)OC2CC2C4CCC5=CC(=O)C=CC5(C)C4C(O)CC23C)C(OC(C)=O)C(OC(C)=O)C1OC(C)=O (stereo not shown) [Compound 3] ... 46.1

Recorded Edema suppression rate of 6 hours after administration of inflammatory agent (%) of CC(C)C(=O)OCC(=O)[C@@]12O[C@H](C3CCCCC3)O[C@@H]1C[C@H]1[C@@H]3CCC4=CC(=O)C=C[C@]4(C)[C@H]3[C@@H](O)C[C@@]12C [Ciclesonide, ciclesonide, reference compound] , please.
30.3

Recorded Edema suppression rate of 6 hours after administration of inflammatory agent (%) of CC(C)C(=O)OCC1OC(OCC(=O)C23OC(C4CCCCC4)OC2CC2C4CCC5=CC(=O)C=CC5(C)C4C(O)CC23C)C(OC(=O)C(C)C)C(OC(=O)C(C)C)C1OC(=O)C(C)C (stereo not shown) [Compound 6] , please.
53.1

Recorded Edema suppression rate of 6 hours after administration of inflammatory agent (%) of CC(=O)NC1C(OCC(=O)C23OC(C4CCCCC4)OC2CC2C4CCC5=CC(=O)C=CC5(C)C4C(O)CC23C)OC(COC(C)=O)C(OC(C)=O)C1OC(C)=O (stereo not shown) [Compound 12] , please.
16.7

Recorded Edema suppression rate of 6 hours after administration of inflammatory agent (%) of CC12C=CC(=O)C=C1CCC1C2C(O)CC2(C)C1CC1OC(C3CCCCC3)OC12C(=O)COC1OC(CO)C(O)C(O)C1O (stereo not shown) [Compound 2] , please.
36.8

Recorded Edema suppression rate of 6 hours after administration of inflammatory agent (%) of CC12C=CC(=O)C=C1CCC1C2C(O)CC2(C)C1CC1OC(C3CCCCC3)OC12C(=O)COC1OC(COC=O)C(OC=O)C(OC=O)C1OC=O (stereo not shown) [Compound 7] , please.
49.7

Recorded Edema suppression rate of 6 hours after administration of inflammatory agent (%) of CC(=O)NC1C(OCC(=O)C23OC(C4CCCCC4)OC2CC2C4CCC5=CC(=O)C=CC5(C)C4C(O)CC23C)OC(COC(C)=O)C(OC(C)=O)C1OC(C)=O (stereo not shown) [Compound 11] , please.
19.0

Recorded Edema suppression rate of 6 hours after administration of inflammatory agent (%) of CCC(=O)OCC1OC(OCC(=O)C23OC(C4CCCCC4)OC2CC2C4CCC5=CC(=O)C=CC5(C)C4C(O)CC23C)C(OC(=O)CC)C(OC(=O)CC)C1OC(=O)CC (stereo not shown) [Compound 4] , please.
46.3

Recorded Edema suppression rate of 6 hours after administration of inflammatory agent (%) of CC12C=CC(=O)C=C1CCC1C2C(O)CC2(C)C1CC1OC(C3CCCCC3)OC12C(=O)COC1OC(COC(=O)c2ccco2)C(OC(=O)c2ccco2)C(OC(=O)c2ccco2)C1OC(=O)c1ccco1 (stereo not shown) [Compound 8] , please.
36.0

Source listed as patent US8765696B2.
